# Tgt: calcium channel (Rattus norvegicus, UniProt P22002)
# Construct: helically cut rat aortic strip
# Sequence (P22002 whole entry): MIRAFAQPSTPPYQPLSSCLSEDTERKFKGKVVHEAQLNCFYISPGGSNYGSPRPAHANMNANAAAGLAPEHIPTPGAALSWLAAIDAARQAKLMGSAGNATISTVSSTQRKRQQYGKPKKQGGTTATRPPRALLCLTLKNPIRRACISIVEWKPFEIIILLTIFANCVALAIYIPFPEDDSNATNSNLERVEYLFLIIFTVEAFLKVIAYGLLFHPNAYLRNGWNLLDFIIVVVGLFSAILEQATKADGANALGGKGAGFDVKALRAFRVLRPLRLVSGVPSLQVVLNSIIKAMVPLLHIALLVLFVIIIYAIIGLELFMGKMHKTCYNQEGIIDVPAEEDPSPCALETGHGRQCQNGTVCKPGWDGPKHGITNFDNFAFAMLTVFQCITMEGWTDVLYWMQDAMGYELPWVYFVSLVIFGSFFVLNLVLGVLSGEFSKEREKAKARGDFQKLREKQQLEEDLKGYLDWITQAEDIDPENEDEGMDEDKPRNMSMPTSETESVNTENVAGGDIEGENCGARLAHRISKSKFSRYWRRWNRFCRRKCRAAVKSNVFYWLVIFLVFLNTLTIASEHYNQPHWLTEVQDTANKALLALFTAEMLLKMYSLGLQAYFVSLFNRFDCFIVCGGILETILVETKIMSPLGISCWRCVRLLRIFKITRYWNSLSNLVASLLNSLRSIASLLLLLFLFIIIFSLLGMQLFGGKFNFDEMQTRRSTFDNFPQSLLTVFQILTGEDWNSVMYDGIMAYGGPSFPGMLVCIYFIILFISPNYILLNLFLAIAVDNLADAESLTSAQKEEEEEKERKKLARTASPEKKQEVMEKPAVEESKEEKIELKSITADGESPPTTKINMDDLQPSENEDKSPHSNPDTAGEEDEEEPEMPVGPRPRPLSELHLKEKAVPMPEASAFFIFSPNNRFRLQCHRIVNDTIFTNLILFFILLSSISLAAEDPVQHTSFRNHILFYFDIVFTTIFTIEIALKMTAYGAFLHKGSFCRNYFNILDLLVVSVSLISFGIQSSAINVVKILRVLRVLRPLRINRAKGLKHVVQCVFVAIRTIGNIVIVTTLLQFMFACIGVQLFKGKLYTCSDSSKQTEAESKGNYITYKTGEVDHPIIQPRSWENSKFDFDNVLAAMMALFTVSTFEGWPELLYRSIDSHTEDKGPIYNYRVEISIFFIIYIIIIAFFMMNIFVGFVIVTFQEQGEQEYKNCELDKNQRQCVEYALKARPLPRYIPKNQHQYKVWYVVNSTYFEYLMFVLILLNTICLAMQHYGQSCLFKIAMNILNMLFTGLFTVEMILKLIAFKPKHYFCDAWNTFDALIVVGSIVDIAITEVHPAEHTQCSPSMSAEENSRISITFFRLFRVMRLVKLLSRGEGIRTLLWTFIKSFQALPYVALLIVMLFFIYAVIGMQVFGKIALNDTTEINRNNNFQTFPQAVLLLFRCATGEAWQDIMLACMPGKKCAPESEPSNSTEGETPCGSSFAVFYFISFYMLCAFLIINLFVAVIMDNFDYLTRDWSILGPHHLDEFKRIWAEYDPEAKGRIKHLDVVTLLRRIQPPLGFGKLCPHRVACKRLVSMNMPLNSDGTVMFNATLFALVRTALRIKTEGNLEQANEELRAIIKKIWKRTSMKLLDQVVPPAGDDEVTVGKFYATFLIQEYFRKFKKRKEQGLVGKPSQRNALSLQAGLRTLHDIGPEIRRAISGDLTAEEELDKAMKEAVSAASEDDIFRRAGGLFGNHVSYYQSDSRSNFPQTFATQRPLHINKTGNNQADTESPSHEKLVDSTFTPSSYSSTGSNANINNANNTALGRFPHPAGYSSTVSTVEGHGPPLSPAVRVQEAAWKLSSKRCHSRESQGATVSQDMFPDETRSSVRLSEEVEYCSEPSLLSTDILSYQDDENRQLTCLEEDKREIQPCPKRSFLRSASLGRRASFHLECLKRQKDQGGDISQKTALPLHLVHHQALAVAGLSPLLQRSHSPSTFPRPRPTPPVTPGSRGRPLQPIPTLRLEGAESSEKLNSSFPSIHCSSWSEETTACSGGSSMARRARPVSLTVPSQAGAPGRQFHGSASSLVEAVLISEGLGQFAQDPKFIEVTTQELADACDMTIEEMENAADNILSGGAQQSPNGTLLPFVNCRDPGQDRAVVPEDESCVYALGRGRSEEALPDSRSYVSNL
# Sequence (P54290 25-1091 partner): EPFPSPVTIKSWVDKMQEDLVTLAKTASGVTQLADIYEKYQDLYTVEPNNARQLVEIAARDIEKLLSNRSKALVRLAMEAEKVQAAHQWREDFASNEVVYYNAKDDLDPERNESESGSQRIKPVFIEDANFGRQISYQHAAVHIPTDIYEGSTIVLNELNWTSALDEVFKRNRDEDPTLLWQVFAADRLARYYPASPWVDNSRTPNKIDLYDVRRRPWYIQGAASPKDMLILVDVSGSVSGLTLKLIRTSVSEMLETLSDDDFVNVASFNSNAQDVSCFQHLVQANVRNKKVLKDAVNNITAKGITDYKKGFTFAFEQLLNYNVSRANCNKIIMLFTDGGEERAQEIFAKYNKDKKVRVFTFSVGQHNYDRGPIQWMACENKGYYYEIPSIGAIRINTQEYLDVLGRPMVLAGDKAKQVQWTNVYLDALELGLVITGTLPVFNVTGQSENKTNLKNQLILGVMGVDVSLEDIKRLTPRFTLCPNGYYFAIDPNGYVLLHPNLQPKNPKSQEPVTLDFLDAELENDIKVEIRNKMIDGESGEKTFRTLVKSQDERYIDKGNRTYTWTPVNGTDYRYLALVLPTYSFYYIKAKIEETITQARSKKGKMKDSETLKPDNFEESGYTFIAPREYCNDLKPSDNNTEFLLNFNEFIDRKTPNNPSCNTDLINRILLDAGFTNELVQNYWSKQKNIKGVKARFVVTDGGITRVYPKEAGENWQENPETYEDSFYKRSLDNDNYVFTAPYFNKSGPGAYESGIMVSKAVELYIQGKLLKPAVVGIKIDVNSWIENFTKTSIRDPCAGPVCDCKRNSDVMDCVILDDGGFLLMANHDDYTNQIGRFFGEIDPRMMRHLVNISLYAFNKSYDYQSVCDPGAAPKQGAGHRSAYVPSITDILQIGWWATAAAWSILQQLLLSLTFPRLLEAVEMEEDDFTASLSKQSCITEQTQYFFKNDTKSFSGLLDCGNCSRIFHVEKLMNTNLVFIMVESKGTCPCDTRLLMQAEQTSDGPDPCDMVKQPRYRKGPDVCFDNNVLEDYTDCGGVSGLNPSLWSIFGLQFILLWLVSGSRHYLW
# Protocol text: Calcium channel blocking activity, K+ depolarization-induced contraction of helically cut rat aortic strip
# Condition details: Krebs-Henselheit solution, 37° C., cumulative doses, read-out: IC50 (50% decrease of contraction of the aortic strip)
pIC50: −log10 of the molar value.
Experimental readout: pIC50

{"Compound": "Cc1ccccc1C(C#N)(CCCNCC1COc2ccccc2O1)C(C)C (single isomer, unassigned) [VUFB 18007]", "Recorded number": 4.82}
{"Compound": "Cc1ccccc1C(C#N)(CCCNCC1COc2ccccc2O1)C(C)C (racemic) [VUFB 17959]", "Recorded number": 4.80}
{"Compound": "Cc1ccccc1C(C#N)(CCCNCC1COc2ccccc2O1)C(C)C (single isomer, unassigned) [VUFB 18018]", "Recorded number": 4.82}
{"Compound": "COc1ccc(C(C#N)(CCCNCC2COc3ccccc3O2)C(C)C)cc1OC (racemic) [VUFB 17951]", "Recorded number": 4.74}

[A] COc1ccc(C(C#N)(CCCNCC2COc3ccccc3O2)C(C)C)cc1OC (single isomer, unassigned) [VUFB 18020]
[B] CC(C)C(C#N)(CCCNCC1COc2ccccc2O1)c1ccccc1 (racemic)
[C] COc1ccc(C(C#N)(CCCNCC2COc3ccccc3O2)C(C)C)cc1OC (single isomer, unassigned) [VUFB 18019]
Please list these compounds in decreasing order of pIC50. Order the labels as requested and give them as your answer.
B, C, A
(B: 5.07, C: 4.80, A: 4.60)
